Organism: Rattus norvegicus
Test Protocol: DrugMatrix - Regimen: Daily Repeat
Assay type: toxicity, organism-based, Sprague-Dawley
Parameters: regimen Daily Repeat, gender Male, age 6-8 weeks
Applied Conditions: in vivo, po, 0 mg/kg, 72 h, tissue Plasma, route oral GAVAGE, dose level Control, time 3 day, vehicle 100 % WATER
Measurement Name: ALANINE AMINOTRANSFERASE (u/L)
Just the number please, in u/L, no unit attached.

                                   molecule          measurement_name  readout_value
0                              NCCCCCC(=O)O  ALANINE AMINOTRANSFERASE           48.5
1                CC(O)CO (stereo not given)  ALANINE AMINOTRANSFERASE           48.5
2  Cc1onc(-c2ccccc2Cl)c1C(=O)N[C@@H]1C(=O)N2[C@@H]1SC(C)(C)[C@@H]2C(=O)O  ALANINE AMINOTRANSFERASE           48.5

// recorded ALANINE AMINOTRANSFERASE for Cn1cc[nH]c1=S : 50.5

// recorded ALANINE AMINOTRANSFERASE for Clc1cccc(Cl)c1N=C1NCCN1 : 48.67

----------
// reported PLATELET COUNT for each item listed
Organism: Rattus norvegicus
Test Protocol: DrugMatrix - Regimen: Daily Repeat
Type: toxicity, organism-based, Sprague-Dawley
Design: regimen Daily Repeat, gender Male, age 6-8 weeks
Applied Conditions: in vivo, po, 0 mg/kg, 72 h, tissue Blood, route oral GAVAGE, dose level Control, time 3 day, vehicle .5 % CMC
Just the number please, in x10E3/uL, no unit attached.

Some solved entries appear below for comparison.
>>> print(df.to_string())
                                   compound  measurement_name  readout_value
0  CC1CC(OC(=O)C(O)c2ccccc2)CC(C)(C)C1 (stereo not drawn) [CYCLANDELATE]    PLATELET COUNT        1074.83
1  C1CCC(C(CC2CCCCN2)C2CCCCC2)CC1 (stereo not drawn)    PLATELET COUNT        1432.17

Field: next compound
// recorded PLATELET COUNT for Nc1ccn([C@H]2CC[C@@H](CO)O2)c(=O)n1 : 1093.17

----------
Species on record: Rattus norvegicus
Test Protocol: DrugMatrix - Regimen: Daily Repeat
Type: toxicity, organism-based, Sprague-Dawley
Set-up: regimen Daily Repeat, gender Male, age 6-8 weeks
Applied Conditions: in vivo, po, 0 mg/kg, 72 h, tissue Plasma, route oral GAVAGE, dose level Control, time 3 day, vehicle .5 % CMC
Measurement Name: POTASSIUM (MEQ/L)
Just the number please, in MEQ/L, no unit attached.

>>> print(df.to_string())
                                   compound  readout_units  readout_value
0  CCCN1C[C@H](CSC)C[C@@H]2c3cccc4[nH]cc(c34)C[C@H]21 [PERGOLIDE]          MEQ/L           6.41
1  Cc1nc2n(c(=O)c1CCN1CCC(c3noc4cc(F)ccc34)CC1)CCCC2          MEQ/L            6.8
2  Cc1ccc(/N=C/N(C)/C=N/c2ccc(C)cc2C)c(C)c1          MEQ/L           7.13

// recorded POTASSIUM for ClC(Cl)Br : 6.41

// recorded POTASSIUM for C1CCC(C(CC2CCCCN2)C2CCCCC2)CC1 (configuration not stated) : 6.7

----------
Species on record: Rattus norvegicus
Test Protocol: DrugMatrix - Regimen: Daily Repeat
Assay type: toxicity, organism-based, Sprague-Dawley
Design: regimen Daily Repeat, gender Male, age 6-8 weeks
Applied Conditions: in vivo, po, 0 mg/kg, 120 h, tissue Blood, route oral GAVAGE, dose level Control, time 5 day, […]
Measurement Name: ABSOLUTE EOSINOPHIL (CELLS/uL)
Just the number please, in CELLS/uL, no unit attached.

Compound	ABSOLUTE EOSINOPHIL [CELLS/uL]
CCOC(=O)C1=C(COCCN)NC(C)=C(C(=O)OC)C1c1ccccc1Cl (centres undefined) [AMLODIPINE]	0
CC(C)C(=O)Nc1ccc([N+](=O)[O-])c(C(F)(F)F)c1 [FLUTAMIDE]	20.67
CCC(C)n1ncn(-c2ccc(N3CCN(c4ccc(OCC5COC(Cn6cncn6)(c6ccc(Cl)cc6Cl)O5)cc4)CC3)cc2)c1=O (centres undefined) [ITRACONAZOLE]	331.5
C[C@H]1O[C@@H](O[C@H]2[C@@H](O)C[C@H](O[C@H]3[C@@H](O)C[C@H](O[C@H]4CC[C@@]5(C)[C@H](CC[C@@H]6[C@@H]5C[C@@H](O)[C@]5(C)[C@@H](C7=CC(=O)OC7)CC[C@]65O)C4)O[C@@H]3C)O[C@@H]2C)C[C@H](O)[C@@H]1O [DIGOXIN]	0
O=C(O)CCCc1ccc(N(CCCl)CCCl)cc1 [CHLORAMBUCIL]	331.5
C[C@@H]1CN(c2c(F)c(N)c3c(=O)c(C(=O)O)cn(C4CC4)c3c2F)C[C@H](C)N1 [SPARFLOXACIN]	0

// recorded ABSOLUTE EOSINOPHIL for Cc1noc(NS(=O)(=O)c2ccc(N)cc2)c1C [SULFISOXAZOLE] : 64.33

// recorded ABSOLUTE EOSINOPHIL for CN(C)c1nc(N(C)C)nc(N(C)C)n1 [ALTRETAMINE] : 0

// recorded ABSOLUTE EOSINOPHIL for OC(Cn1cncn1)(Cn1cncn1)c1ccc(F)cc1F [FLUCONAZOLE] : 331.5

----------
Species: Rattus norvegicus
Test Protocol: DrugMatrix - Regimen: Daily Repeat
Format: toxicity, organism-based, Sprague-Dawley
Design: regimen Daily Repeat, gender Male, age 6-8 weeks
Applied Conditions: in vivo, po, 0 mg/kg, 72 h, tissue Plasma, route oral GAVAGE, dose level Control, time 3 day, […]
LIPASE strictly less than 10 u/L = Condition met. Otherwise Condition not met.

Check out these entries, answers already filled in.
Mol Smiles	Qualitative Label
C[C@H]1O[C@@H](O[C@H]2[C@@H](O)C[C@H](O[C@H]3[C@@H](O)C[C@H](O[C@H]4CC[C@@]5(C)[C@H](CC[C@@H]6[C@@H]5C[C@@H](O)[C@]5(C)[C@@H](C7=CC(=O)OC7)CC[C@]65O)C4)O[C@@H]3C)O[C@@H]2C)C[C@H](O)[C@@H]1O	Condition not met
OC(Cn1cncn1)(Cn1cncn1)c1ccc(F)cc1F	Condition not met
Cc1noc(NS(=O)(=O)c2ccc(N)cc2)c1C	Condition not met
O=NN(CCCl)C(=O)NC1CCCCC1	Condition not met
O=c1oc2ccccc2c(O)c1Cc1c(O)c2ccccc2oc1=O	Condition met

Next compound, please.
Data request: Strictly below 10 u/L in LIPASE? C[C@@H]1CN(c2c(F)c(N)c3c(=O)c(C(=O)O)cn(C4CC4)c3c2F)C[C@H](C)N1
Data returned: Condition not met

----------
// reported NEUTROPHIL for each item listed
Organism: Rattus norvegicus
Test Protocol: DrugMatrix - Regimen: Daily Repeat
Type: toxicity, organism-based, Sprague-Dawley
Set-up: regimen Daily Repeat, gender Male, age 6-8 weeks
Applied Conditions: in vivo, po, 0 mg/kg, 120 h, tissue Blood, route oral GAVAGE, dose level Control, time 5 day, vehicle .5 % CMC
Just the number please, in %, no unit attached.

Some solved entries appear below for comparison.
In [3]: df
Out[3]:
                                   compound  measurement_name  readout_value
0  Nc1ccn([C@H]2CC[C@@H](CO)O2)c(=O)n1 [ZALCITABINE]        NEUTROPHIL           24.5
1          ClC(Br)Br [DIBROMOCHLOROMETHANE]        NEUTROPHIL          12.67

Field: next compound
// recorded NEUTROPHIL for Cc1ccc(/N=C/N(C)/C=N/c2ccc(C)cc2C)c(C)c1 [AMITRAZ] : 6.67

----------
// reported GLUCOSE for each item listed
Organism: Rattus norvegicus
Test Protocol: DrugMatrix - Regimen: Daily Repeat
Format: toxicity, organism-based, Sprague-Dawley
Parameters: regimen Daily Repeat, gender Male, age 6-8 weeks
Applied Conditions: in vivo, po, 0 mg/kg, 72 h, tissue Plasma, route oral GAVAGE, dose level Control, time 3 day, vehicle .5 % CMC
Just the number please, in mg/dL, no unit attached.

Some solved entries appear below for comparison.
                                   compound  measurement_name  readout_units  readout_value
0  Cc1ccc(/N=C/N(C)/C=N/c2ccc(C)cc2C)c(C)c1           GLUCOSE          mg/dL         142.67
1    CN1CCN(CCCN2c3ccccc3Sc3ccc(Cl)cc32)CC1           GLUCOSE          mg/dL            164
2  O=C(CCCN1CC=C(n2c(=O)[nH]c3ccccc32)CC1)c1ccc(F)cc1           GLUCOSE          mg/dL         182.67
3  NC1=NC(=O)C(c2ccccc2)O1 (centres undefined)           GLUCOSE          mg/dL         173.17
4          CCOP(=S)(OCC)Oc1nc(Cl)c(Cl)cc1Cl           GLUCOSE          mg/dL         171.67

// recorded GLUCOSE for CCn1cc(C(=O)O)c(=O)c2cc(F)c(N3CCNCC3)cc21 : 142.67

// recorded GLUCOSE for N=C(N)NCCN1CCCCCCC1 : 173.5

// recorded GLUCOSE for ClC(Br)Br : 141.67
